System: RAW264.7
TEST_DESCRIPTION: Antiinflammatory activity in LPS-induced mouse RAW264.7 cells assessed as inhibition of NO production at 2 to 10 uM pretreated for 1 hr followed by LPS addition and measured after 24 hrs by griess reagent based assay
Format: functional, cell-based
CONDITION_SET: dose 2-10 µM, time 25.0 hrs
Active and inactive are the calls of the source. The rule behind the calls is not given here.
Labels: 1 for active, -1 for inactive

>>> print(df.to_string())
                                        smi  classification
0  O=C(/C=C/c1ccc(O)cc1)NCCCN1CCc2cc(Cl)ccc21               1
1  O=C(/C=C/c1cccc(O)c1)NCCCN1CCc2cc(Cl)ccc21              -1
2    O=C(/C=C/c1cccc(O)c1)NCCCN1CCc2ccccc21              -1
